Cited source for all entries: the supplement of paper PMC10567573

B1: FBF1 (parent)
chain: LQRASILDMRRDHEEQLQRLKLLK

# Variants of: B1
# Test Summary: protein stability index of a GFP-peptide fusion (GPS, HEK-293T) (PSI 1-6); higher = more stable;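 also: lentivirally expressed fusions sorted by FACS into six bins by GFP to DsRed ratio, PSI derived from sequencing read proportions per bin multiplied by bin number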
# Condition Context: c terminus: a fixed tail appended
Property: protein stability index
Please state the value as a number alone, without comment.

E15K    3.04
R3C    3.02
L7H    4.1
A4L    3.13

Turning now to a further variant:
Request: State the recorded protein stability index for this entry: `I6D`
Result: 4.31
